Data provenance is ChEMBL document CHEMBL1961873.

Molecular target: Serine/threonine-protein kinase MRCK alpha (Homo sapiens) (UniProt Q5VT25);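 also: each inhibition figure is a mean value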
Sequence (Q5VT25 whole entry): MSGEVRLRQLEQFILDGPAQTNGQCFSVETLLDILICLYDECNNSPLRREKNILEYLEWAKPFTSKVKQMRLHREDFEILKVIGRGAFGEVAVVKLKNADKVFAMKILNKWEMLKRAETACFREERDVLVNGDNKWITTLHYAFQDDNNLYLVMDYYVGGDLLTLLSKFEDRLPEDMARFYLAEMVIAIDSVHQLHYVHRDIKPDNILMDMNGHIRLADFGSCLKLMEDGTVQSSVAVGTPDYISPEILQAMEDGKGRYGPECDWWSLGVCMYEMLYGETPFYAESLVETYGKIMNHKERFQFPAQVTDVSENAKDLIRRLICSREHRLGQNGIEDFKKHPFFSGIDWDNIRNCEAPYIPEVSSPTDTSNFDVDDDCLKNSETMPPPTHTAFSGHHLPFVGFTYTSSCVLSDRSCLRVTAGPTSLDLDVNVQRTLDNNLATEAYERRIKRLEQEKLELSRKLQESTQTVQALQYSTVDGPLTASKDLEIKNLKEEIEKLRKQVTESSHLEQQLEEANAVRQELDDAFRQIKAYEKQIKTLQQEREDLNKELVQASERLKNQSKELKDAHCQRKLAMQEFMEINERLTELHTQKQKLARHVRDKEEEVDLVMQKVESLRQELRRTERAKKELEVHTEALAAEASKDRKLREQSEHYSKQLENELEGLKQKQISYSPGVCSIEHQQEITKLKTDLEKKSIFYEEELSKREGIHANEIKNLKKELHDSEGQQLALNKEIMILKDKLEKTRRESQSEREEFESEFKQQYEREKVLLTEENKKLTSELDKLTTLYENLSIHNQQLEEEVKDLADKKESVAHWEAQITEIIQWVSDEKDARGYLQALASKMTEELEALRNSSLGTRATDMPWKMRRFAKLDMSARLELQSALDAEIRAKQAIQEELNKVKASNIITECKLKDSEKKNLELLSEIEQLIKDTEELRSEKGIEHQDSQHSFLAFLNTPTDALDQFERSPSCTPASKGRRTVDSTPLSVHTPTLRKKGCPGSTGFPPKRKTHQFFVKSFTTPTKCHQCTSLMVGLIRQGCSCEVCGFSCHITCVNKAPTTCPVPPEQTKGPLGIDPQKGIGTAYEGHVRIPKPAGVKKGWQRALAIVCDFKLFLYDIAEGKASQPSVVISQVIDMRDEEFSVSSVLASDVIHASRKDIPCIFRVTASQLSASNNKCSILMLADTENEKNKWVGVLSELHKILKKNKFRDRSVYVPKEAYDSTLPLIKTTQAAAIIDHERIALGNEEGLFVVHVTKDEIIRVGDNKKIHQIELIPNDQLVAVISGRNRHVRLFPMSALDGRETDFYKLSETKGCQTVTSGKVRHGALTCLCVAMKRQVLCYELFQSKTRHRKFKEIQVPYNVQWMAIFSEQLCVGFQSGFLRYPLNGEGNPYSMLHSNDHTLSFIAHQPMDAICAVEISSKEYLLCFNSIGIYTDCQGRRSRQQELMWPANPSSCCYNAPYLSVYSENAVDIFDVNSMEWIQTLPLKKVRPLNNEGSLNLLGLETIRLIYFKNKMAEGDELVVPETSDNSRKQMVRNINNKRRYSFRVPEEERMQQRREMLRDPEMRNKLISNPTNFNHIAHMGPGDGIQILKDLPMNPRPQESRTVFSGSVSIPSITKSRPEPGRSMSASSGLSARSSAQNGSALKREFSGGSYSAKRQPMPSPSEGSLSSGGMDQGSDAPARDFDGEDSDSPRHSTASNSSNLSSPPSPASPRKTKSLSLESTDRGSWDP
Conditions: at 0.1 µM
Please provide measured inhibition for the entries that follow.
Give just the numeric value; % need not be written.

Lookup: Sample `COC(=O)c1sc(-n2cnc3cc(OC)c(OC)cc32)cc1OCc1ccccc1C(F)(F)F` — what was its inhibition?
Found: -0.56

Lookup: Sample `CCNC(=O)O[C@H]1CN[C@H](C#Cc2cc3ncnc(Nc4ccc(OCc5cccc(F)c5)c(Cl)c4)c3s2)C1` — what was its inhibition?
Found: 0.37

Lookup: Sample `Nc1ncc(-c2cccc(S(N)(=O)=O)c2)c2scc(-c3ccc(F)c(Cl)c3)c12` — what was its inhibition?
Found: -3.16

Lookup: Sample `CCn1c(-c2nonc2N)nc2c(C#CC(C)(C)O)nc(OC[C@H](N)c3ccccc3)cc21` — what was its inhibition?
Found: 11.8

Lookup: Sample `CCN1CCC(CC(=O)Nc2n[nH]c3nnc(-c4cccc(F)c4F)cc23)CC1` — what was its inhibition?
Found: -3.37

Lookup: Sample `CN1CCC(n2cnc(-c3ccc(F)cc3)c2-c2ccnc(Nc3ccccc3)n2)CC1` — what was its inhibition?
Found: 0.81
